Origin of the recorded values: patent US20240277857A1

targetOrSystem: T1, coil C-mCherry-6xHis fusion protein (human)
T1 construct: also called mCherry-C; wild-type mCherry-C; not shown: mCherry red fluorescent protein fused to the C-terminal of coil C
T1 chain: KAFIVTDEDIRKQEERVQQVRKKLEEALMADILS
runDescription: ITC, C′-GFP injected into C-mCherry, PBS pH 7.5, 25 °C
measuredMetric: Kd (nM)
Output spec: scalar in nM, unitless text.

*Q* Specify measured Kd for PEERERMIKQLKEELRLEEAKLVLLKKLRQSQIQKEATAQK (other, also called GFP-C′; wild-type GFP-C′; not shown: green fluorescent protein (GFP) fused to the C-terminal of coil C′) [coil C′-GFP-6xHis fusion protein] .
*A* 10.7
